Settings: 283.15 K; 40100 kPa; Liquid; Frequency=1.5 MHz; Single path-length method
Measured quantity: speed of sound (m/s)

1. CCCCCC | 1391.9
2. CCCCCCC | 1426.3
3. CCO | 1397
4. CCCCCCCC | 1453.5
5. CCCO | 1450.3
6. O | 1513.4
7. CO | 1345.2
8. Cc1ccccc1 | 1538.7

---

Method description: refractive index (Na D-line) (dimensionless)
Settings: 298.15 K; 101.33 kPa; Liquid; Standard Abbe refractometry
Measured quantity: refractive index

1) Cc1ccccc1 | 1.494
2) CO | 1.3263
3) CCO | 1.3593
4) CCCCCC | 1.3723
5) O | 1.3326
6) CCCO | 1.383
7) CCCCCCCC | 1.3951
8) CCCCCCC | 1.3852
